The reported measurements were obtained from patent US20250059171A1.

pIC50 data for SARS-CoV 3CLpro (Severe acute respiratory syndrome coronavirus, UniProt P0C6X7) follow.
pIC50: −log10 of the molar value.

{"substance-smiles": "CC[C@H](C)[C@H](NC(=O)C(C)C)C(=O)N1C[C@H]2[C@@H]([C@H]1C(=O)NN(C[C@@H]1CCNC1=O)C(=O)[C@@H](F)Cl)C2(C)C", "pIC50": 7.48}
{"substance-smiles": "CC[C@H](C)[C@H](NC(=O)C(C)(C)C)C(=O)N1C[C@H]2[C@@H]([C@H]1C(=O)NN(C[C@@H]1CCNC1=O)C(=O)[C@H](F)Cl)C2(C)C", "pIC50": 7.82}
{"substance-smiles": "CC1(C)[C@@H]2[C@@H](C(=O)NN(C[C@@H]3CCNC3=O)C(=O)[C@@H](F)Cl)N(C(=O)[C@@H](NC(=O)C3(F)CC3)C3CCC3)C[C@@H]21", "pIC50": 7.24}

====

- system-tested: SARS-CoV-2 3CLpro (Severe acute respiratory syndrome coronavirus 2)
- assay-remarks: biochemical
Let's look at some compounds and their measured log10 IC50.
property-label: log10 IC50 (log10 of the value in nM)

{"compound": "CC1(C)[C@@H]2[C@@H](C(=O)NN(C[C@@H]3CCNC3=O)C(=O)[C@H](F)Cl)N(C(=O)c3cc(F)cc(C(F)(F)F)c3)C[C@@H]21", "log10 IC50": 2.30}
{"compound": "CC[C@@H](C)[C@H](NC(=O)C1(F)CCC1)C(=O)N1C[C@H]2[C@@H]([C@H]1C(=O)NN(C[C@@H]1CCNC1=O)C(=O)[C@H](F)Cl)C2(C)C", "log10 IC50": 1.18}
{"compound": "CC[C@H](C)[C@H](NC(=O)C1(F)CC1)C(=O)N1C[C@@H]2CCC[C@@H]2[C@H]1C(=O)NN(C[C@@H]1CCCNC1=O)C(=O)[C@H](F)Cl [Example 170a]", "log10 IC50": 1.20}
{"compound": "CC[C@H](C)[C@H](NC(=O)C1(F)CC1)C(=O)N1C[C@H](C(F)(F)F)C[C@H]1C(=O)NN(C[C@@H]1CCNC1=O)C(=O)[C@H](F)Cl", "log10 IC50": 1.11}
{"compound": "CC[C@H](C)[C@H](NC(=O)C1(F)CCC1)C(=O)N1C[C@H]2[C@@H]([C@H]1C(=O)NN(C[C@@H]1CCNC1=O)C(=O)[C@H](F)Cl)C2(C)C", "log10 IC50": 0.90}

====

IC50 data for MERS-CoV 3CLpro (Middle East respiratory syndrome-related coronavirus) follow.
property-label: IC50 (µM)

{"molecule": "CCC(C)(C)[C@H](NC(=O)C1(F)CC1)C(=O)N1C[C@H]2[C@@H]([C@H]1C(=O)NN(C[C@@H]1CCNC1=O)C(=O)[C@H](F)Cl)C2(C)C", "units-text": "µM", "value-observed": 0.086}
{"molecule": "CC(F)C(=O)N[C@H](C(=O)N1C[C@@H]2CCC[C@@H]2[C@H]1C(=O)NN(C[C@@H]1CCNC1=O)C(=O)[C@H](F)Cl)C(C)(C)C (mixture of isomers)", "units-text": "µM", "value-observed": 0.093}
{"molecule": "O=C1NCC[C@H]1CN(NC(=O)[C@H]1[C@@H]2CCC[C@@H]2CN1C(=O)COc1cccc(F)c1)C(=O)[C@H](F)Cl [Example 88b]", "units-text": "µM", "value-observed": 0.155}

====

pIC50: −log10 of the molar value.
pIC50 data for HCoV-229E 3CLpro (Human coronavirus 229E, UniProt P0C6X1) follow.

{"compound": "CC[C@@H](C)[C@H](NC(=O)C(F)(F)F)C(=O)N1C[C@H]2[C@@H]([C@H]1C(=O)NN(C[C@@H]1CCNC1=O)C(=O)[C@H](F)Cl)C2(C)C", "system-tested": "HCoV-229E 3CLpro (Human coronavirus 229E, UniProt P0C6X1)", "pIC50": 7.70}
{"compound": "CC[C@H](C)[C@H](NC(=O)C(F)(F)F)C(=O)N1C[C@@H]2CCC[C@@H]2[C@H]1C(=O)NN(C[C@@H]1CCNC1=O)C(=O)[C@H](F)Cl", "system-tested": "HCoV-229E 3CLpro (Human coronavirus 229E, UniProt P0C6X1)", "pIC50": 7.66}
{"compound": "CC(C)(C)[C@H](NC(=O)C(F)(F)F)C(=O)N1C[C@@H]2CCC[C@@H]2[C@H]1C(=O)NN(C[C@@H]1CCNC1=O)C(=O)[C@@H](F)Cl", "system-tested": "HCoV-229E 3CLpro (Human coronavirus 229E, UniProt P0C6X1)", "pIC50": 6.95}
{"compound": "CC[C@@H](C)[C@H](NC(=O)C1CC1(F)F)C(=O)N1C[C@H]2[C@@H]([C@H]1C(=O)NN(C[C@@H]1CCNC1=O)C(=O)[C@H](F)Cl)C2(C)C (mixture of isomers)", "system-tested": "HCoV-229E 3CLpro (Human coronavirus 229E, UniProt P0C6X1)", "pIC50": 7.64}
{"compound": "CC[C@H](C)[C@H](NC(=O)C(F)F)C(=O)N1C[C@@H]2CCC[C@@H]2[C@H]1C(=O)NN(C[C@@H]1CCNC1=O)C(=O)[C@H](F)Cl", "system-tested": "HCoV-229E 3CLpro (Human coronavirus 229E, UniProt P0C6X1)", "pIC50": 7.54}

====

Let's look at some compounds and their measured IC50.
- system-tested: MERS-CoV 3CLpro (Middle East respiratory syndrome-related coronavirus, UniProt K9N7C7)
- Sequence (K9N7C7 3248-3553): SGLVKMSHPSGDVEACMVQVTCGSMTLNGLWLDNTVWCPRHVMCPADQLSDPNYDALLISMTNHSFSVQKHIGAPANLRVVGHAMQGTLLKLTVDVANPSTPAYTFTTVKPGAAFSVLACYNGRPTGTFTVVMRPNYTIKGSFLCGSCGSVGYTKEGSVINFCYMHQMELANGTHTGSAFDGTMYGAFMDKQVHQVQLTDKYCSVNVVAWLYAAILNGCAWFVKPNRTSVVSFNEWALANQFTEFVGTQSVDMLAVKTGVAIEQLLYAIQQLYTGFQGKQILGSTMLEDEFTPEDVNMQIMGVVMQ
property-label: IC50 (nM)

{"substance-smiles": "CC[C@@H](C)[C@H](NC(=O)C1(F)CCC1)C(=O)N1C[C@H]2[C@@H]([C@H]1C(=O)NN(C[C@@H]1CCNC1=O)C(=O)[C@H](F)Cl)C2(C)C", "system-tested": "MERS-CoV 3CLpro (Middle East respiratory syndrome-related coronavirus, UniProt K9N7C7)", "units-text": "nM", "value-observed": 206}
{"substance-smiles": "CC[C@H](C)[C@H](NC(=O)C1CC(F)(F)C1)C(=O)N1C[C@H]2[C@@H]([C@H]1C(=O)NN(C[C@@H]1CCNC1=O)C(=O)[C@@H](F)Cl)C2(C)C", "system-tested": "MERS-CoV 3CLpro (Middle East respiratory syndrome-related coronavirus, UniProt K9N7C7)", "units-text": "nM", "value-observed": 127}
{"substance-smiles": "CC[C@H](C)[C@H](NC(=O)[C@@H](F)Cl)C(=O)N1CC(C)(C)C[C@H]1C(=O)NN(C[C@@H]1CCNC1=O)C(=O)[C@@H](F)Cl", "system-tested": "MERS-CoV 3CLpro (Middle East respiratory syndrome-related coronavirus, UniProt K9N7C7)", "units-text": "nM", "value-observed": 167}
{"substance-smiles": "CCC(CC)[C@H](NC(=O)C(F)(F)F)C(=O)N1C[C@@H]2CCC[C@@H]2[C@H]1C(=O)NN(C[C@@H]1CCNC1=O)C(=O)[C@H](F)Cl", "system-tested": "MERS-CoV 3CLpro (Middle East respiratory syndrome-related coronavirus, UniProt K9N7C7)", "units-text": "nM", "value-observed": 69}
{"substance-smiles": "CC[C@H](C)[C@H](NC(=O)C(F)(F)F)C(=O)N1C[C@H]2[C@@H]([C@H]1C(=O)NN(C[C@@H]1CCNC1=O)C(=O)[C@@H](F)Cl)C2(C)C", "system-tested": "MERS-CoV 3CLpro (Middle East respiratory syndrome-related coronavirus, UniProt K9N7C7)", "units-text": "nM", "value-observed": 111}

====

pIC50 data for UniProtKB K9N7C7 follow.
pIC50: −log10 of the molar value.
property-label: pIC50

{"molecule": "CC(C)(C)[C@H](NC(=O)C(F)(F)F)C(=O)N1CCC(C)(C)[C@@H]1C(=O)NN(C[C@@H]1CCNC1=O)C(=O)[C@H](F)Cl [Example 155b]", "property-label": "pIC50", "bound-operator": "<", "value-observed": 5.00}
{"molecule": "CC(C)(C)[C@H](NC(=O)C1(F)CC1)C(=O)N1C[C@H]2[C@@H]([C@H]1C(=O)NN(C[C@@H]1CCNC1=O)C(=O)[C@H](F)Cl)C2(C)C [Example 83]", "property-label": "pIC50", "bound-operator": "=", "value-observed": 7.01}
{"molecule": "CC(C)(C)[C@H](Nc1ccccn1)C(=O)N1C[C@@H]2CCC[C@@H]2[C@H]1C(=O)NN(C[C@@H]1CCNC1=O)C(=O)[C@H](F)Cl [Example 184]", "property-label": "pIC50", "bound-operator": "=", "value-observed": 6.56}
{"molecule": "CC[C@H](C)[C@H](NC(=O)C1CC(F)(F)C1)C(=O)N1C[C@@H]2CCC[C@@H]2[C@H]1C(=O)NN(C[C@@H]1CCNC1=O)C(=O)[C@H](F)Cl [Example 126]", "property-label": "pIC50", "bound-operator": "=", "value-observed": 7.17}
{"molecule": "CC(F)(F)C(=O)N[C@H](C(=O)N1C[C@@H]2CCC[C@@H]2[C@H]1C(=O)NN(C[C@@H]1CCNC1=O)C(=O)[C@H](F)Cl)C(C)(C)C [Example 30]", "property-label": "pIC50", "bound-operator": "=", "value-observed": 6.84}
{"molecule": "CC[C@H](C)[C@H](NC(=O)C1CC1(F)F)C(=O)N1C[C@H]2[C@@H]([C@H]1C(=O)NN(C[C@@H]1CCNC1=O)C(=O)[C@@H](F)Cl)C2(C)C (mixture of isomers) [Example 111]", "property-label": "pIC50", "bound-operator": "=", "value-observed": 7.02}
{"molecule": "CC[C@H](C)[C@H](NC(=O)C(F)F)C(=O)N1C[C@@H]2CCC[C@@H]2[C@H]1C(=O)NN(C[C@@H]1CCNC1=O)C(=O)[C@H](F)Cl [Example 39]", "property-label": "pIC50", "bound-operator": "=", "value-observed": 7.15}
{"molecule": "CC[C@H](C)[C@H](NC(=O)C(F)F)C(=O)N1C[C@H]2[C@@H]([C@H]1C(=O)NN(C[C@@H]1CCNC1=O)C(=O)[C@H](F)Cl)C2(C)C [Example 51]", "property-label": "pIC50", "bound-operator": "=", "value-observed": 7.23}
{"molecule": "CC[C@H](C)[C@H](NC(=O)C1CC1(F)F)C(=O)N1C[C@H]2[C@@H]([C@H]1C(=O)NN(C[C@@H]1CCNC1=O)C(=O)[C@H](F)Cl)C2(C)C (mixture of isomers) [Example 53]", "property-label": "pIC50", "bound-operator": "=", "value-observed": 7.06}
{"molecule": "CC[C@H](C)[C@H](NC(=O)C(F)(F)F)C(=O)N1C[C@@H]2CCC[C@@H]2[C@H]1C(=O)NN(C[C@@H]1CCNC1=O)C(=O)[C@H](F)Cl [Example 48]", "property-label": "pIC50", "bound-operator": "=", "value-observed": 7.25}
{"molecule": "CCC[C@H](NC(=O)C(F)(F)F)C(=O)N1C[C@@H]2CCC[C@@H]2[C@H]1C(=O)NN(C[C@@H]1CCNC1=O)C(=O)[C@H](F)Cl [Example 78]", "property-label": "pIC50", "bound-operator": "=", "value-observed": 7.24}
{"molecule": "CC[C@@H](C)[C@H](NC(=O)C(F)F)C(=O)N1C[C@H]2[C@@H]([C@H]1C(=O)NN(C[C@@H]1CCNC1=O)C(=O)[C@@H](F)Cl)C2(C)C [Example 120]", "property-label": "pIC50", "bound-operator": "=", "value-observed": 7.01}
{"molecule": "CC[C@H](C)[C@H](NC(=O)[C@H](F)Cl)C(=O)N1C[C@H]2[C@@H]([C@H]1C(=O)NN(C[C@@H]1CCNC1=O)C(=O)[C@H](F)Cl)C2(C)C [Example 185]", "property-label": "pIC50", "bound-operator": "=", "value-observed": 7.00}
{"molecule": "CC1([C@H](NC(=O)C(F)(F)F)C(=O)N2C[C@H]3[C@@H]([C@H]2C(=O)NN(C[C@@H]2CCNC2=O)C(=O)[C@H](F)Cl)C3(C)C)CC1 [Example 68]", "property-label": "pIC50", "bound-operator": "=", "value-observed": 7.09}
{"molecule": "CC(=O)N[C@H](C(=O)N1C[C@@H]2CCC[C@@H]2[C@H]1C(=O)NN(C[C@@H]1CCNC1=O)C(=O)[C@H](F)Cl)C(C)(C)C [Example 29]", "property-label": "pIC50", "bound-operator": "=", "value-observed": 7.17}
{"molecule": "CC(C)(C)[C@H](NC(=O)C(F)(F)F)C(=O)N1C[C@H]2[C@@H]([C@H]1C(=O)NN(C[C@@H]1CCCNC1=O)C(=O)[C@H](F)Cl)C2(C)C (single isomer, unassigned) [Example 163b]", "property-label": "pIC50", "bound-operator": "=", "value-observed": 6.33}
{"molecule": "CC[C@H](C)[C@H](NC(=O)[C@H](F)Cl)C(=O)N1C[C@@H]2CCC[C@@H]2[C@H]1C(=O)NN(C[C@H]1CCCNC1=O)C(=O)[C@H](F)Cl [Example 192]", "property-label": "pIC50", "bound-operator": "=", "value-observed": 6.83}
{"molecule": "CC[C@@H](C)[C@H](NC(=O)C(C)(F)F)C(=O)N1C[C@@H]2CCC[C@@H]2[C@H]1C(=O)NN(C[C@@H]1CCNC1=O)C(=O)[C@H](F)Cl [Example 76]", "property-label": "pIC50", "bound-operator": "=", "value-observed": 6.71}
{"molecule": "CC[C@H](C)[C@H](NC(=O)C(F)F)C(=O)N1C[C@@H]2CCC[C@@H]2[C@H]1C(=O)NN(C[C@@H]1CCNC1=O)C(=O)[C@@H](F)Cl [Example 127]", "property-label": "pIC50", "bound-operator": "=", "value-observed": 7.17}
{"molecule": "CC(C)(C)[C@H](NC(=O)C(F)(F)F)C(=O)N1CC2(CC2)C[C@H]1C(=O)NN(C[C@@H]1CCNC1=O)C(=O)[C@H](F)Cl [Example 6]", "property-label": "pIC50", "bound-operator": "=", "value-observed": 6.96}
